TARGET_OF_ASSAY: AR protein (Homo sapiens, UniProt P10275)
Construct: degradation activity of the compounds disclosed in the present disclosure on AR protein in VCaP cells; host or cells: VCaP
Sequence (P10275 whole entry): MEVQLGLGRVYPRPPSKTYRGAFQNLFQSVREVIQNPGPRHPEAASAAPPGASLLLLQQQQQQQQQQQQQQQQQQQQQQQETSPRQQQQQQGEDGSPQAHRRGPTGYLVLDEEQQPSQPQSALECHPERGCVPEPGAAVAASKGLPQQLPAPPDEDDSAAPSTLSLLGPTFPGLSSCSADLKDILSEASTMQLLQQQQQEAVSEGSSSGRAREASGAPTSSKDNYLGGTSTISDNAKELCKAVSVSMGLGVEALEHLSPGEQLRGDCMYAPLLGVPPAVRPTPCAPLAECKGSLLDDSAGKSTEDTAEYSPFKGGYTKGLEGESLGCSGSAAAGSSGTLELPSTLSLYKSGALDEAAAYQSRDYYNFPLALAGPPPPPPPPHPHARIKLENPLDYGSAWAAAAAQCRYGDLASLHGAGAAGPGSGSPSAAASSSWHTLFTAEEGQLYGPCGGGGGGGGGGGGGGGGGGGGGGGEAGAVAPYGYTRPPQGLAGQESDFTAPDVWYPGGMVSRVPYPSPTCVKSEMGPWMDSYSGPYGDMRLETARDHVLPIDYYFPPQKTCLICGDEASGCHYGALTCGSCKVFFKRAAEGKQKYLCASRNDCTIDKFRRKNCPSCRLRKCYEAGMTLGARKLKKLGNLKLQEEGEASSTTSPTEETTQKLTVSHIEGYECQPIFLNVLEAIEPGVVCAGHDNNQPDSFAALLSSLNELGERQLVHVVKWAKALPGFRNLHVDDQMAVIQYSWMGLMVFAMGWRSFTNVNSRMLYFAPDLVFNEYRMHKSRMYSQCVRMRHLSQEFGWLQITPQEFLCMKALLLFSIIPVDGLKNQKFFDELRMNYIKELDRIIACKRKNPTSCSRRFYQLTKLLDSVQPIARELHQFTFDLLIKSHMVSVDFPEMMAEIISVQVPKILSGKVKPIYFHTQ
PROCEDURE_TEXT: Degradation of AR protein in VCaP cells (Western blot)
Assay type: cell-based
EXPERIMENTAL_CONDITIONS: compound at 10 nM, 8 hours, read-out: Degradation rate of the AR protein in VCaP cells, 10 nM (%)
Protocol: The degradation activity of the compounds disclosed in the present disclosure on AR protein in VCaP cells (cell source: ATCC) Corresponding solvent controls were also set and cultured for 8 hours. After 8 hours of cultivation, the culture medium was removed and the cells were washed with PBS. […] The protein concentration in the extract was detected by BCA method. […] Bands were analyzed in grayscale using Image Studio software. For each sample, GAPDH protein bands were detected as internal reference. […]
rule met means recorded inhibition at 0.01 µM is 50% or above; rule not met means it is below 50%.

## Task Hello, I need to know if CCOC1(CN2CCC3(CC2)COc2c3ccc3c2C(=O)N(C2CCC(=O)NC2=O)C3=O)CCN(c2ccc(C(=O)N[C@H]3CC[C@H](Oc4ccc(C#N)c(Cl)c4)CC3)nn2)CC1 (some centres unmarked) [Compound 244] has measured inhibition at 0.01 µM not below 50%. Thanks!
## Result rule not met

## Task Ok, now N#Cc1ccc(O[C@H]2CC[C@H](NC(=O)c3ccc(N4CCC(CN5CCC6(CC5)COc5cc7c(cc5O6)CN(C5CCC(=O)NC5=O)C7=O)CC4)nn3)CC2)cc1Cl (some centres unmarked) [Compound 76]
## Result rule met

## Task Ok, now CC1(CN2CCC3(CC2)COc2c3ccc3c2CN(C2CCC(=O)NC2=O)C3=O)CCN(c2ncc(C(=O)N[C@H]3CC[C@H](Oc4ccc(C#N)c(Cl)c4)CC3)cn2)CC1 (some centres unmarked) [Compound 193]
## Result rule not met

## Task Ok, now N#Cc1ccc(O[C@H]2CC[C@H](NC(=O)c3ccc(N4CC(N5CCC6(CC5)COc5c6ccc6c5CN(C5CCC(=O)NC5=O)C6=O)C4)nn3)CC2)cc1Cl (some centres unmarked) [Compound 183]
## Result rule met

====

TARGET_OF_ASSAY: AR protein (Homo sapiens, UniProt P10275, T878A)
Construct: degradation activity of the compounds disclosed in the present disclosure on AR protein in LNCaP cells; host or cells: LNCaP FGC
Sequence (P10275 whole entry T878A): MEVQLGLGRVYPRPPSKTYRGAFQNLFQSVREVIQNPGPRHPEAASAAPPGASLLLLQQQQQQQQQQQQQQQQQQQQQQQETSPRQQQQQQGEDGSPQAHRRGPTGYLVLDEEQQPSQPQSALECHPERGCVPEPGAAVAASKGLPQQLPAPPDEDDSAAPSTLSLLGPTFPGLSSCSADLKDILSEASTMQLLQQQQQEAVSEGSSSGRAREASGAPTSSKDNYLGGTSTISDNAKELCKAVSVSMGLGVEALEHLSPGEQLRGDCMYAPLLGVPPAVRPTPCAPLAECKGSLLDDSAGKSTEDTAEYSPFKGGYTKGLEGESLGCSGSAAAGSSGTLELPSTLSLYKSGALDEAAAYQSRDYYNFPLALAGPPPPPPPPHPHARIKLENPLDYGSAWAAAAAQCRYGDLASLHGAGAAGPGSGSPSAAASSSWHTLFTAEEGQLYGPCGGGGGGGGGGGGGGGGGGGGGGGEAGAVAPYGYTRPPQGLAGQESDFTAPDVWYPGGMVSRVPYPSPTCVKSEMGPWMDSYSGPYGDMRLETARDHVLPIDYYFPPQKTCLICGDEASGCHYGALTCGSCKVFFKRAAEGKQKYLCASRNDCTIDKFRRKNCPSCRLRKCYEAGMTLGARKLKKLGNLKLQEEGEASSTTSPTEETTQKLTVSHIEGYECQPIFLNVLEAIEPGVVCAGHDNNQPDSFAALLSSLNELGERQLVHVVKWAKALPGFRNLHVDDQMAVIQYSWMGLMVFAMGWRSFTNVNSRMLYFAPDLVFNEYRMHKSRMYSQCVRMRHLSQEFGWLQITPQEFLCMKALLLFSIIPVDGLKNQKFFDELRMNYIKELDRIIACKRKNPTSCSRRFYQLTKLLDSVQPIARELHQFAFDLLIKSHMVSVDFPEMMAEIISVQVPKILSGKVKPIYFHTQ
PROCEDURE_TEXT: Degradation of AR protein in LNCaP cells (Western blot)
Type: cell-based
EXPERIMENTAL_CONDITIONS: LNCaP cells, compound 10 nM, 8 hours, Western blot grayscale, GAPDH internal reference; read-out: Degradation rates of the AR protein in LNCaP cells, 10 nM (%)
Method: The degradation activity of the compounds disclosed in the present disclosure on AR protein in LNCaP cells (cell source: ATCC) Corresponding solvent controls were also set and cultured for 8 hours. After 8 hours of cultivation, the culture medium was removed and the cells were washed with PBS. […] The protein concentration in the extract was detected by BCA method. […] Bands were analyzed in grayscale using Image Studio software. For each sample, GAPDH protein bands were detected as internal reference. […]
I'd be grateful if you could share measured inhibition at 0.01 µM for these entries.
Provide the reading as a plain figure in %.

## Task Consider the compound shown here: CC1(CN2CCC3(CC2)COc2c3ccc3c2CN(C2CCC(=O)NC2=O)C3=O)CCN(c2ccc(C(=O)N[C@H]3C(C)(C)[C@H](Oc4ccc(C#N)c(Cl)c4)C3(C)C)cc2)CC1 (some centres unmarked) [Compound 222] What is its recorded inhibition at 0.01 µM?
## Result 4

## Task Ok, now N#Cc1ccc(O[C@H]2CC[C@H](NC(=O)c3ccc(N4CCC(CN5CCC6(CC5)COc5cc7c(cc56)C(=O)N(C5CCC(=O)NC5=O)C7=O)CC4)nn3)CC2)cc1Cl (some centres unmarked) [Compound 56]
## Result 44

## Task Ok, now N#Cc1ccc(O[C@H]2CC[C@H](NC(=O)c3ccc(N4CC[C@H](CN5CCC6(CCc7cc8c(cc7O6)C(=O)N(C6CCC(=O)NC6=O)C8=O)CC5)C4)nn3)CC2)cc1Cl (some centres unmarked) [Compound 22]
## Result 71

## Task Ok, now N#Cc1ccc(O[C@H]2CC[C@H](NC(=O)c3ccc(N4CCC5(CC4)CC(N4CCC6(CCc7ccc8c(c7O6)CN(C6CCC(=O)NC6=O)C8=O)CC4)C5)nn3)CC2)cc1Cl (some centres unmarked) [Compound 154]
## Result 46

## Task Ok, now N#Cc1ccc(O[C@H]2CC[C@H](NC(=O)c3ccc(N4CC(CN5CCC6(CC5)COc5cc7c(cc5C6)C(=O)N(C5CCC(=O)NC5=O)C7=O)C4)nn3)CC2)cc1Cl (some centres unmarked) [Compound 59]
## Result 43
